Measured Change values are reported for all entries that follow.
Tested on: Mus musculus
Test: Percent change in the plasma glucose concentration of drug -treated db/db mice ([…], perorally) relative to vehicle at the dose 2 mg/kg
Type: functional
Conditions: route oral
observation.type: Change (%)

[
  {
    "compound": "Oc1[nH]nc(C(F)(F)F)c1Cc1ccc(Br)cc1",
    "readout.unit": "%",
    "obs.value": -5
  },
  {
    "compound": "C[S+]([O-])c1ccc(Cc2c(C(F)(F)F)n[nH]c2O)cc1 (configuration not stated)",
    "readout.unit": "%",
    "obs.value": -25
  },
  {
    "compound": "COc1[nH]nc(C(F)(F)F)c1Cc1ccc(SC)cc1",
    "readout.unit": "%",
    "obs.value": -16
  },
  {
    "compound": "CCSc1ccc(Cc2c(C(F)(F)F)n[nH]c2O)cc1",
    "readout.unit": "%",
    "obs.value": -23
  },
  {
    "compound": "CCc1ccc(Cc2c(C(F)(F)F)n[nH]c2O)cc1",
    "readout.unit": "%",
    "obs.value": -28
  },
  {
    "compound": "CSc1ccc(Cc2c(C(F)(F)F)n[nH]c2O)cc1",
    "readout.unit": "%",
    "obs.value": -29
  },
  {
    "compound": "COc1nn(C)c(C(F)(F)F)c1Cc1ccc(SC)cc1",
    "readout.unit": "%",
    "obs.value": -20
  }
]
